The origin of these recorded values is PubChem BioAssay AID504329.

- ASSAY_EXPLANATION: H1N1 influenza NS1A inhibitors, functional cell based assay (AID 504329)
- EXPERIMENTAL_PARAMETERS: percent inhibition, at 12.5 µM, stronger effect = higher value
The whole screen tested about 340,000 compounds, of which about 1,000 (0.29%) were called active. A selection follows. Results with a measured potency or affinity are listed apart.
Listed next: entries and their corresponding inhibition.
Express your answer in %, writing the number without its unit.

Here is how some molecules turned out for inhibition.
1) C=CCn1c(SCC(=O)N(C)C)nc2cc(C(=O)O)ccc2c1=O
-7.19
2) CCOc1ccc(CNCCCSc2ncccn2)cc1
4.75
3) Cc1[nH]c(=S)[nH]c(=O)c1CCOc1ccccc1
21.1
4) COc1cc2[nH]c(=O)n(Cc3ccc(C(=O)NCCCN4CCC(C)CC4)cc3)c(=O)c2cc1OC
4.01
5) CC12CCC(C(=O)N(CSC(=S)N/N=C\c3ccccc3Cl)C1=O)C2(C)C (configuration not stated)
-1.31

Qu. Param item = CCNC(=S)N1CCN(c2ccccc2OCC)CC1 ; retrieve measured inhibition.
Ans. 0.76

Qu. Likewise for Cc1cc(OCC(=O)OCC(=O)N2CCc3ccccc3C2)ccc1Cl ?
Ans. -4.55

Qu. Entry to check: CC12CCC(C(=O)N(CSC(=S)N/N=C\c3ccccc3)C1=O)C2(C)C (configuration not stated)
Ans. 6.84

---

Overview of reported inhibition across a group of compounds:
- ASSAY_EXPLANATION: H1N1 influenza NS1A inhibitors, functional cell based assay (AID 504329)
- EXPERIMENTAL_PARAMETERS: percent inhibition, at 12.5 µM, stronger effect = higher value
Among all 340,000 compounds or so, about 1,000 (0.29%) were called active. Not all results are given here. Results with a measured potency or affinity are listed apart.
Reply with just the number (in %).

Look over these answered cases.
1. O=C(COc1ccc(Cl)cc1Br)OCC(=O)c1ccc[nH]1
-4.26
2. O=C(CN1CCN(C(C(=O)Nc2ccc(Cl)cc2C(F)(F)F)c2ccccc2)CC1)NC1CC1 (stereo unspecified)
3.63
3. Cc1ccccc1C(=O)N=c1sccn1C
-5.97
4. Cc1ccc2c(c1)N(CCC(=O)NC1CC1)C(=O)C(C)O2 (stereo unspecified)
-4.26
5. COc1cc([N+](=O)[O-])cc(/C=N/NC(=O)c2cncc(Br)c2)c1O
-13.3

Qu. # lookup: inhibition of COc1cc([N+](=O)[O-])cc(/C=N/NC(=O)c2cccnc2)c1O
Ans. -13.7

Qu. What about this compound? Cc1ccc(CNc2nc3ccccc3n2C)cc1
Ans. -2.51

Qu. Another: Cn1c(N=Nc2ccccc2)nc2ccccc21
Ans. 3.98

Qu. Also, Cc1ccc(-n2nc3c(=O)n(CCCC(=O)NCc4cccc(F)c4)nc(C)c3c2C)cc1 please.
Ans. 4.12

Qu. Entry Cc1ccc(N(CC(=O)NCc2ccccn2)S(=O)(=O)c2ccccc2)cc1Cl please
Ans. -3.75

Qu. // next record Cc1cc(C)nc(N/N=C/c2cc(Br)ccc2O)n1
Ans. 8.15

---

inhibition: recorded values
- ASSAY_EXPLANATION: H1N1 influenza NS1A inhibitors, functional cell based assay (AID 504329)
- EXPERIMENTAL_PARAMETERS: percent inhibition, at 12.5 µM, stronger effect = higher value
Hit rate of the full screen: of about 340,000 compounds, about 1,000 (0.29%) were called active. These entries were drawn from the full list. Results with a measured potency or affinity are listed apart.
Use % as the unit, but write only the number.

1. CCC(C(=O)N/N=C/c1cccnc1)c1ccccc1 (centres undefined)
-5.44
2. COc1ccc(/C=N/Nc2cc(OC)ncn2)cc1
3.33
3. COc1cccc(/C=N/Nc2c(Cl)cncc2Cl)c1O
1.36
4. COc1ccc(NC(=O)c2ccc(NC(=O)CN(C)CC(=O)Nc3c(C)cccc3C)cc2)cc1
-7.57
5. COc1ccc(NC(=O)CSc2nnc(C(C)C)n2N)cc1
2.67

Qu. # lookup: inhibition of CC1CN(c2ccc([N+](=O)[O-])cc2C(=O)N2CCOCC2)CC(C)N1 (centres undefined)
Ans. -4.9

Qu. Param item: Cc1cccc(C(=O)NC(C(=O)Nc2nc(-c3ccccn3)cs2)C(C)C)c1 (centres undefined)
Ans. 15.6

Qu. Record: CC(Oc1ccccc1)C(=O)Nc1nc(-c2ccccn2)cs1 (centres undefined)
Ans. 16.9

Qu. Proceed to COc1cc(N/N=C/c2ccc(N(C)C)cc2)ncn1
Ans. -5.63

Qu. Note, next up: CN(C)c1ccc(N=Nc2ccc(S(N)(=O)=O)cc2)cc1
Ans. 12.4

Qu. # repeat for O=C(CCc1c[nH]c2ccccc12)NCC1CCCO1 (centres undefined)
Ans. -2.9

Qu. Another compound: COc1ccc(/C=N/Nc2cc(N3CCOCC3)ncn2)c(OC)c1
Ans. -0.39

Qu. Same read-out for Cc1ccc(S(=O)(=O)N2[C@@H](c3cccc(C)c3)C(C(=O)O)=C[C@H]2CC2CCCC2)cc1 ?
Ans. 8.82

Qu. Follow-up entry: Clc1ccccc1/C=N/Nc1cc(N2CCOCC2)ncn1
Ans. 17.6

Qu. Further, for Nc1nonc1-n1nnc(C(=O)N/N=C/c2ccccc2Br)c1CN1CCCC1 ?
Ans. 1.45

Qu. # iterate: CN(C)c1ccc(C2Nc3cccc4cccc(c34)N2)cc1
Ans. 1.96

Qu. Cool, now COc1ccc([C@H]2CC(=O)C=C(c3ccc(O)cc3)C2)cc1OC
Ans. -4.89

Qu. Next compound up: Cc1ccc(N=Nc2ccc(O)cc2)c(Br)c1
Ans. 10.2

Qu. Please give the result for NNC(=O)c1sccc1OCc1ccc(Cl)cc1 too.
Ans. 0.97

Qu. Next entry: O=C(CP(=O)(O)CC(=O)c1ccccc1)c1ccccc1
Ans. 5.59

Qu. Next compound: COc1ccc(C(CCN2CCCCC2)c2c(OC)cc(OC)c3c(-c4ccccc4)cc(=O)oc23)cc1 (centres undefined)
Ans. 3.17

Qu. Also Oc1ccccc1/C=N/Nc1cccc2cccnc12 ?
Ans. -0.48

Qu. Also COc1ccc(CNC(=O)C2CCCN2C(=O)NC2CCCCC2)cc1 (centres undefined) ?
Ans. 8.99

Qu. // same read-out, input: Oc1ccccc1/C=N/Nc1ccnc(SCc2ccccc2)n1
Ans. -3.79

---

- ASSAY_EXPLANATION: H1N1 influenza NS1A inhibitors, functional cell based assay (AID 504329)
- EXPERIMENTAL_PARAMETERS: percent inhibition, at 12.5 µM, stronger effect = higher value
The whole screen tested about 340,000 compounds, of which about 1,000 (0.29%) were called active. A selection follows. Entries with a potency or affinity are not part of this list.
PROPERTY_NAME: inhibition (%)
Report the value in % with no unit label.

Qu. // returns reported inhibition for input Cc1cc(OCC(=O)NCc2ccncc2)c2c3c(c(=O)oc2c1)CCCC3
Ans. -0.56

Qu. Another molecule: O=C(CN1C(=O)NC2(CCOc3ccccc32)C1=O)NCCc1ccc(F)cc1 (stereo unspecified)
Ans. -8.82

Qu. Please give the result for O=S(=O)(O)c1cc(O)ccc1O too.
Ans. 1.1

Qu. Can you handle Oc1ccc(N=Nc2ccc3c(c2)OCCO3)c(O)c1 next?
Ans. 12.8

Qu. Cool, now COc1ccc(CC(=O)NCCC2=CCCCC2)cc1
Ans. 10.7

Qu. Entry CC(=O)Nc1ccc(S(=O)(=O)N2CCN(CCc3ccccc3)CC2)cc1 please
Ans. 0.26

---

- ASSAY_EXPLANATION: H1N1 influenza NS1A inhibitors, functional cell based assay (AID 504329)
- EXPERIMENTAL_PARAMETERS: percent inhibition, at 12.5 µM, stronger effect = higher value
The whole screen tested about 340,000 compounds, of which about 1,000 (0.29%) were called active. Only a sample is shown. Results with a measured potency or affinity are listed apart.
PROPERTY_NAME: inhibition

1) O=C(/C=N/O)NCc1ccncc1
-2.91% (inactive)
2) CC[C@@]1(C(=O)OC)N[C@H](CN(C)S(=O)(=O)c2ccc(OC)cc2)[C@@H]2C(=O)N(C)C(=O)[C@@H]21
-26.2% (inactive)
3) O=C(c1cc(-c2ccccc2Cl)on1)N1CCN(C(=O)c2ccco2)CC1
9.97% (inactive)
4) O=C(c1ccco1)N1CCN(C2=NS(=O)(=O)c3ccccc32)CC1
-26.1% (inactive)

Please turn your attention to the following entry.
Qu. Requested field: inhibition. Item: Cc1ccc(F)cc1NC(=O)CSc1nnc(CNC(=O)c2ccco2)n1C
Ans. -10.7% (inactive)

---

inhibition for assorted molecules
- ASSAY_EXPLANATION: H1N1 influenza NS1A inhibitors, functional cell based assay (AID 504329)
- EXPERIMENTAL_PARAMETERS: percent inhibition, at 12.5 µM, stronger effect = higher value
Among all 340,000 compounds or so, about 1,000 (0.29%) were called active. Not all results are given here. Results with a measured potency or affinity are listed apart.
Supply the numeric figure in %, leaving out any unit text.

Worked set:
1) Cc1ccc(N=Nc2ccc(O)c3ncccc23)cc1C
-4.94
2) Cc1ccc(N=Nc2ccc(O)c3ncccc23)cc1
-1.47
3) CC(C)Cn1c(NCCO)nc2ccccc21
-6.72
4) CCOC(=O)C1(C(=O)OCC)NC(=O)CC1C (stereo unspecified)
1.41
5) CC(C)CNS(=O)(=O)c1cc(C(=O)OC2CCOC2=O)c(Cl)cc1Cl (stereo unspecified)
-8.56

Qu. inhibition for Oc1ccc(N=Nc2ccccc2C(F)(F)F)c2cccnc12 ?
Ans. 18.7
